MEASUREMENT_PROTOCOL: Total plasma concentration in parkinson's disease patients
Format: ADME, cell-free
SETUP_CONDITIONS: human
EXPERIMENTAL_READOUT: concentration

*Q* Consider the molecule CC(C)C[C@H]1C(=O)N2CCC[C@H]2[C@]2(O)O[C@](NC(=O)[C@@H]3C=C4c5cccc6[nH]c(Br)c(c56)C[C@H]4N(C)C3)(C(C)C)C(=O)N12 and give its measured concentration.
*A* 10 to 250 nM

----------
MEASUREMENT_PROTOCOL: Protein binding in plasma of parkinson's disease patients
Assay type: ADME, cell-free
SETUP_CONDITIONS: human, read-out: PPB
EXPERIMENTAL_READOUT: fraction unbound

*Q* What does the record list as fraction unbound for CC(C)C[C@H]1C(=O)N2CCC[C@H]2[C@]2(O)O[C@](NC(=O)[C@@H]3C=C4c5cccc6[nH]c(Br)c(c56)C[C@H]4N(C)C3)(C(C)C)C(=O)N12 [BROMOCRIPTINE] ?
*A* 0.04 to 0.1
